Taken from ChEMBL document CHEMBL1145106.

# system.tested: Delta-type opioid receptor (Homo sapiens)
# Sequence (P41143 whole entry): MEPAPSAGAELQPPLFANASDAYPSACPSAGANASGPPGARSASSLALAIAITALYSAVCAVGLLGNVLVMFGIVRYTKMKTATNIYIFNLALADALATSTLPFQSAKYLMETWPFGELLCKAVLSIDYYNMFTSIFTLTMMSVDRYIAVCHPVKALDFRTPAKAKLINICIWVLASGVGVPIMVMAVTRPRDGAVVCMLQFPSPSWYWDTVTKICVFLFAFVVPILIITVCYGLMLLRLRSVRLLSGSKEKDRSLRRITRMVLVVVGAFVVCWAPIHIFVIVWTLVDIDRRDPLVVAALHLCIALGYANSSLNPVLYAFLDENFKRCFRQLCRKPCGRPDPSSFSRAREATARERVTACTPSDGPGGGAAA
# assay.summary: Ability to displace [3H]DPDPE from human recombinant Opioid receptor delta 1 in CHO cells
pKi: −log10 of the molar value.

>  <molecule>
CCCCC(=O)NCCc1ccc2[nH]c3c(c2c1)C[C@@]1(O)C2Cc4ccc(O)c5c4[C@@]1(CCN2CC1CC1)[C@H]3O5

>  <pKi>
8.12

$$$$
>  <molecule>
O=C(NCc1ccccc1)c1ccc2[nH]c3c(c2c1)C[C@@]1(O)C2Cc4ccc(O)c5c4[C@@]1(CCN2CC1CC1)[C@H]3O5

>  <pKi>
7.95

$$$$
>  <molecule>
CCCCCCCNC(=N)Cc1ccc2[nH]c3c(c2c1)C[C@@]1(O)C2Cc4ccc(O)c5c4[C@@]1(CCN2CC1CC1)[C@H]3O5

>  <pKi>
8.13

$$$$
